# experimental.target: 5-HT4 receptor (UniProt Q13639)
experimental.readout: Ki (nM)

{"compound": "CCc1cn2c(N)c(Cl)cc(C(=O)NCC3CCN(CC(C)(C)OC)CC3)c2n1 [Example 4]", "Ki [nM]": 1.2}

(A) COCCCN1CCC(CNC(=O)c2cc(Cl)c(N)n3cc(C)nc23)CC1 [Compound B, reference compound]
(B) Cc1cn2c(N)c(Cl)cc(C(=O)NCC3CCN(CC(C)C)CC3)c2n1 [Example 1]
(C) CCCCN1CCC(CNC(=O)c2cc(Cl)c(N)n3cc(C)nc23)CC1 [Compound A, reference compound]
(D) Cc1cn2c(N)ccc(C(=O)NCC3CCN(CC(C)C)CC3)c2n1 [Example 2]
Hey, can you sort those compounds up there by Ki, smallest first? Answer with the labels in sequence, matching the requested order.
B, C, D, A
(B: 0.82 nM, C: 1.2 nM, D: 3.1 nM, A: 4.6 nM)
